target: Renin (Homo sapiens) (UniProt P00797); assay: Inhibition of human renal renin at the concentration of 10e-5 M.
PARAMETER: inhibition (%)
Dear colleague, please return just the value in %, with no unit written.

Field: example entries. Status: answers known.
- CC(C)C[C@@H](NC(=O)[C@H](C)NC(=O)[C@H](Cc1ccccc1)NC(=O)OC(C)(C)C)[C@H](O)CS(=O)(=O)C1CCCCC1: 76
- CC(C)C[C@@H](NC(=O)[C@H](Cc1c[nH]cn1)NC(=O)[C@H](Cc1ccccc1)NC(=O)OC(C)(C)C)[C@H](O)CSc1ccccc1: 96
- CC(C)C[C@@H](NC(=O)[C@H](C)NC(=O)[C@H](Cc1ccccc1)NC(=O)OC(C)(C)C)[C@H](O)COc1ccccc1: 48
- CC(C)C[C@@H](NC(=O)[C@H](C)NC(=O)[C@H](Cc1ccccc1)NC(=O)OC(C)(C)C)[C@H](O)CS(=O)(=O)c1ccccc1: 25
- CC(C)CC[C@H](O)[C@H](CC(C)C)NC(=O)[C@H](C)NC(=O)[C@H](Cc1ccccc1)NC(=O)OC(C)(C)C: 85
- CC(C)C[C@@H](NC(=O)[C@H](C)NC(=O)[C@H](Cc1ccccc1)NC(=O)OC(C)(C)C)[C@H](O)CNc1ccccc1: 30

Consider the compound CC(C)COC[C@@H](O)[C@@H](CC(C)C)NC(=O)[C@H](C)NC(=O)[C@H](Cc1ccccc1)NC(=O)OC(C)(C)C and give its measured inhibition.
59

###

Target: UniProtKB P00797
Sequence (whole entry): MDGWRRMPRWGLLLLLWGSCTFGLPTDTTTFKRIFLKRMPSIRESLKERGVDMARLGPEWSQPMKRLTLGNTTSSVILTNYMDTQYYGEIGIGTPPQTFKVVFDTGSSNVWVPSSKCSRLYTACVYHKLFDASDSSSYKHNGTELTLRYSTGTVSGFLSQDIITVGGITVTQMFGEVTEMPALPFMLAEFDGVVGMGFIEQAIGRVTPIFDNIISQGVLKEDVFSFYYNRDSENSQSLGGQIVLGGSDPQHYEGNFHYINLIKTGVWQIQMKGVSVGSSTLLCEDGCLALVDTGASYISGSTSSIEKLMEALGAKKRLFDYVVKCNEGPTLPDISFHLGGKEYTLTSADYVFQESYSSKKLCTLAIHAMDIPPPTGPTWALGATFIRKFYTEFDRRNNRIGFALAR
Assay: Inhibition of human renal renin at the concentration of 10e-5 M.
# cutoff 40% applies to inhibition; >= gives MET, < gives NOT MET

Example results:
- CC(C)C[C@@H](NC(=O)[C@H](C)NC(=O)[C@H](Cc1ccccc1)NC(=O)OC(C)(C)C)[C@H](O)CSc1ccc2ccccc2c1: NOT MET
- CC(C)C[C@@H](NC(=O)[C@H](C)NC(=O)[C@H](Cc1ccccc1)NC(=O)OC(C)(C)C)[C@H](O)C[S+]([O-])c1ccccc1 (stereo partly drawn): NOT MET
- CC(C)COC[C@@H](O)[C@@H](CC(C)C)NC(=O)[C@H](Cc1c[nH]cn1)NC(=O)[C@H](Cc1ccccc1)NC(=O)OC(C)(C)C: MET

Read the next record carefully.
Determine whether measured inhibition meets or exceeds 40% for CC(C)C[C@@H](NC(=O)[C@H](C)NC(=O)[C@H](Cc1ccccc1)NC(=O)OC(C)(C)C)[C@H](O)CSc1ccc(C(C)(C)C)cc1
NOT MET

###

biological target: Renin (Homo sapiens, UniProt P00797); assay: Inhibition of human renal renin at the pH optimum 6.0.
PARAMETER: pIC50
Remember the convention: pIC50 equals -log10 of concentration in molar.

- CC(C)C[C@@H](NC(=O)[C@H](C)NC(=O)[C@H](Cc1ccccc1)NC(=O)OC(C)(C)C)[C@H](O)CSC1CCCC1: 6.00

Renin (Homo sapiens, UniProt P00797) / pIC50 / CC(C)C[C@@H](NC(=O)[C@H](Cc1c[nH]cn1)NC(=O)[C@H](Cc1ccccc1)NC(=O)OC(C)(C)C)[C@H](O)CSC(C)C : value?
7.09

Renin (Homo sapiens, UniProt P00797) / pIC50 / CC(C)C[C@@H](NC(=O)[C@H](C)NC(=O)[C@H](Cc1ccccc1)NC(=O)OC(C)(C)C)[C@H](O)CSCCc1ccccc1 : value?
5.35

###

biological target: UniProt:P00791; assay: Inhibition of porcine pepsin; parameters: concentration or dose not given beside the values; details: concentration not given here
Sequence (P00791 60-385 limits assumed): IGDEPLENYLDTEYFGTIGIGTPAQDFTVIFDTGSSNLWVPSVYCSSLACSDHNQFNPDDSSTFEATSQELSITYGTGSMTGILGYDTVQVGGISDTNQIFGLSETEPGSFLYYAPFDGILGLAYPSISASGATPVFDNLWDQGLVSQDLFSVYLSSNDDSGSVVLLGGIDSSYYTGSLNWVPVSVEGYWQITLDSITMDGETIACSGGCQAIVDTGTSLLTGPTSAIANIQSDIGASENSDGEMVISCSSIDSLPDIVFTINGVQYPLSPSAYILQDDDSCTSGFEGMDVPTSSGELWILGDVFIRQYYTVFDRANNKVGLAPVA
PARAMETER: inhibition (%)
Dear colleague, please return just the value in %, with no unit written.

Field: example entries. Status: answers known.
• CC(C)C[C@@H](NC(=O)[C@H](C)NC(=O)[C@H](Cc1ccccc1)NC(=O)OC(C)(C)C)[C@H](O)CSCc1ccccc1 = 96
• CC(C)C[C@@H](NC(=O)[C@H](Cc1c[nH]cn1)NC(=O)[C@H](Cc1ccccc1)NC(=O)OC(C)(C)C)[C@H](O)CSc1ccccc1 = 0
• CC(C)COC[C@@H](O)[C@@H](CC(C)C)NC(=O)[C@H](C)NC(=O)[C@H](Cc1ccccc1)NC(=O)OC(C)(C)C = 68
• CC(C)C[C@@H](NC(=O)[C@H](Cc1c[nH]cn1)NC(=O)[C@H](Cc1ccc2ccccc2c1)NC(=O)OC(C)(C)C)[C@H](O)CSC1CCCCC1 = 0
• CC(C)C[C@@H](NC(=O)[C@H](C)NC(=O)[C@H](Cc1ccccc1)NC(=O)OC(C)(C)C)[C@H](O)CSC1CCCCC1 = 100
• CC(C)C[C@@H](NC(=O)[C@H](Cc1c[nH]cn1)NC(=O)[C@H](Cc1ccccc1)NC(=O)OC(C)(C)C)[C@H](O)CS(=O)(=O)C(C)C = 3

Below: the item to evaluate.
UniProt:P00791 / inhibition / CC(C)C[C@H](NC(=O)[C@H](C)NC(=O)[C@H](Cc1ccccc1)NC(=O)OC(C)(C)C)[C@@H](O)CSC(C)C : value?
73

###

biological target: Renin (Homo sapiens); assay: The compound was tested for inhibition of human renal renin at the concentration of 10e-7 M
PARAMETER: inhibition
# answer = value followed by unit

Field: example entries. Status: answers known.
* CC(C)C[C@@H](NC(=O)[C@H](Cc1c[nH]cn1)NC(=O)[C@H](Cc1ccccc1)NC(=O)OC(C)(C)C)[C@H](O)CS(=O)(=O)C1CCCCC1 | 51%
* CC(C)C[C@@H](NC(=O)[C@H](Cc1c[nH]cn1)NC(=O)[C@H](Cc1ccccc1)NC(=O)OC(C)(C)C)[C@H](O)CSC(C)C | 54%
* CC(C)C[C@H](NC(=O)[C@H](Cc1c[nH]cn1)NC(=O)[C@H](Cc1ccccc1)NC(=O)OC(C)(C)C)[C@@H](O)CSC1CCCCC1 (stereo in doubt; 55) | 78%
* CC(C)C[C@@H](NC(=O)[C@H](Cc1c[nH]cn1)NC(=O)[C@H](Cc1cccc2ccccc12)NC(=O)OC(C)(C)C)[C@H](O)CSC1CCCCC1 | 85%

Consider the compound CC(C)C[C@@H](NC(=O)[C@H](Cc1c[nH]cn1)NC(=O)[C@H](Cc1ccc2ccccc2c1)NC(=O)OC(C)(C)C)[C@H](O)CSC1CCCCC1 and give its measured inhibition.
85%

###

# pIC50 annotations
target: UniProtKB P00797; experiment: The compound was tested for inhibition of human renal renin at the pH optimum 7.4
Remember the convention: pIC50 equals -log10 of concentration in molar.

UniProtKB P00797 / pIC50 / CC(C)CC[C@@H](O)[C@@H](CC(C)C)NC(=O)[C@H](Cc1c[nH]cn1)NC(=O)[C@H](Cc1cccc2ccccc12)NC(=O)OC(C)(C)C : value?
6.82

UniProtKB P00797 / pIC50 / CC(C)C[C@@H](NC(=O)[C@H](Cc1c[nH]cn1)NC(=O)[C@H](Cc1ccc2ccccc2c1)NC(=O)OC(C)(C)C)[C@H](O)CSC1CCCCC1 : value?
7.40

UniProtKB P00797 / pIC50 / CC(C)C[C@@H](NC(=O)[C@H](Cc1c[nH]cn1)NC(=O)[C@H](Cc1ccccc1)NC(=O)OC(C)(C)C)[C@H](O)CS(=O)(=O)CC(C)C : value?
6.46

UniProtKB P00797 / pIC50 / CC(C)CCS(=O)(=O)C[C@@H](O)[C@@H](CC(C)C)NC(=O)[C@H](Cc1c[nH]cn1)NC(=O)[C@H](Cc1ccccc1)NC(=O)OC(C)(C)C : value?
6.30

###

target: Renin (Homo sapiens); experiment: Inhibition of human renal renin at the concentration of 10e-5 M.
PARAMETER: inhibition (%)
Dear colleague, please return just the value in %, with no unit written.

Field: example entries. Status: answers known.
- CC(C)C[C@@H](NC(=O)[C@H](C)NC(=O)[C@H](Cc1ccccc1)NC(=O)OC(C)(C)C)[C@H](O)COC(C)C: 54
- CC(C)C[C@@H](NC(=O)[C@H](C)NC(=O)[C@H](Cc1ccccc1)NC(=O)OC(C)(C)C)[C@H](O)CSCc1cccc2ccccc12: 48

Below: the item to evaluate.
Renin (Homo sapiens) / inhibition / CC(C)C[C@@H](NC(=O)[C@H](Cc1c[nH]cn1)NC(=O)[C@H](Cc1ccccc1)NC(=O)OC(C)(C)C)[C@H](O)CS(=O)(=O)CC(C)C : value?
98
